Each recorded value in this set is attributed to paper PMC13494018.

target: CD276, Q5ZPR3
Sequence (Q5ZPR3 whole entry): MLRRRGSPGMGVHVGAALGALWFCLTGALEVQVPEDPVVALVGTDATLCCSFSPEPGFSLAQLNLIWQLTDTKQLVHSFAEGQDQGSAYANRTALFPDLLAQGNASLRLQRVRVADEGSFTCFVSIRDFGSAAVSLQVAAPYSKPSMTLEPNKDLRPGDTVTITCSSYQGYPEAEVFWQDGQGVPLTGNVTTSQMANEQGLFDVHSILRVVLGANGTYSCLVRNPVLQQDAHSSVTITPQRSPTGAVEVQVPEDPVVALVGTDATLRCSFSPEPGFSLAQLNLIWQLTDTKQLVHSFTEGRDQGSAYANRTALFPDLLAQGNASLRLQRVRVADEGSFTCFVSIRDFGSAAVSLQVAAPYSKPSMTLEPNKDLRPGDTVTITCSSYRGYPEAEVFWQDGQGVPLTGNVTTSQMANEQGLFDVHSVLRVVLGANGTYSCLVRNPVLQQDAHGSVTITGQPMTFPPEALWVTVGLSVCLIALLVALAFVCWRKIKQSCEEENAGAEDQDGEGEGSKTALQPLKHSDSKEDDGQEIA
property-label: binding in a display sort

binder | binding in a display sort
design_620_fbd04095-bef7-46a9-992d-f2cb8915922f_1915_dldesign_0_cycle1_af2pred (protein) NEDLKKAAELAKKAAQLAPQPEAAEVAAKAAEAAEKAVGPELGNYALALATLPPAARALGMSNLATSLEKLV | not found (inactive)
design_617_b3fadc1d-0db4-4da8-8433-818493aa2ab2_944_dldesign_0_cycle1_af2pred (protein) AEAAAIEQLNTAVEIIESAAKAGERFARAAAGLFITLARQYADVVPKETLTALAERATAAAAPVPAVAERLAAALQEVIEA | not found (inactive)
design_488_244881a1-ba0c-4c08-ad9c-1f64cf93580a_302_dldesign_0_cycle1_af2pred (protein) MMAEYEARARELFEKAAASDPETARKIGEEMVKLAKEDVEFGNVAALVAAQVAAESGSPVLRQIQAAIARTVIEQLA | not found (inactive)
design_616_e8336982-fa4d-4d7c-b06f-9007953e1994_1495_dldesign_0_cycle1_af2pred (protein) SEAELAKKFEEGLKKVEEAKKYAKKVEAKDPEKGKKLKELAGEAANAVLRGYAIPEKAEEEWAKVEKIYEEAKKIAA | not found (inactive)

Turning now to a further record.
[in] Return the recorded binding in a display sort value; entry: design_623_6e2e8b1f-5d9a-4413-9869-27a184816b12_1233_dldesign_0_cycle1_af2pred (protein) DAATQAKVKELAEKALNGTPEEAYKATAEAFKISEQAGMEVLAAAAKGKPENAHAALSAYAAGLVAAKKAA
[out] not found (inactive)
